target: recombinant glyceraldehyde 3-phosphate dehydrogenase (GAPDH) tetramer (UniProt P04406 1-335); test: ITC
Sequence (P04406 whole entry): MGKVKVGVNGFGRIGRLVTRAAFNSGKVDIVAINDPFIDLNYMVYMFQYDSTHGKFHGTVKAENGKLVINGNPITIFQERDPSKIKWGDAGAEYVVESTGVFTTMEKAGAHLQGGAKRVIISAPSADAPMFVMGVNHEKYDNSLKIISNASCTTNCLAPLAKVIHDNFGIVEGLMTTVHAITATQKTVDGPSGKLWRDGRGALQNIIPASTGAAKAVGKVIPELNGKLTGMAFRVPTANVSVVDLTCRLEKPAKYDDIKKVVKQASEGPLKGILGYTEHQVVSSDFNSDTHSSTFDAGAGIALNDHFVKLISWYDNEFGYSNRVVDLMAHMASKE
Reported Endpoint: Kd (mM)

A: recombinantly expressed band 3 (AE1) peptide, residues 1-56 (domain or fragment) MEELQDDYEDMMEENLEQEEYEDPDIPESQMEEPAAHDTEATATDYHTTSHPGTHK
B: MEELQDDYEDMMEENLEQEEYEDPDIPESQ (domain or fragment) [recombinantly expressed AE1 peptide spanning residues 1-30]
In: Given A and B , report the one with the higher recorded Kd. The response must carry the label of the picked entry.
Out: B
